Experiment: Absorption maximum and extinction measurement (absorbance, 1 cm path length, 10 mg/L solutions)
Type: physicochemical
Settings: in xylene, 10 mg/L solution, 1 cm path length
Procedure: All percentages are weight percentages, unless otherwise indicated. Concentrations in parts per million (“ppm”) are calculated on a weight/volume basis. […] Extinction values are determined by measuring absorption in absorbance units (“AU”) with a 1 cm path length on 10 mg/L solutions. […] The absorption maxima, λmax, of several substituted anthraquinone dyes of formula (I), measured in xylene, are provided in the following table. […]
Catalogue of extinction value readings, one per entry.
Kindly answer with a numeric value in AU, unit omitted.

Take a look at these entries with their results.
compound="CCCCC(CC)CNc1ccc(NCC(CC)CCCC)c2c1C(=O)c1c(O)ccc(O)c1C2=O (stereo not shown)" measured_endpoint="extinction value" reported_measurement=0.640
compound=CCCCc1ccc(Nc2c(C#N)c(C#N)c(Nc3ccc(CCCC)cc3)c3c2C(=O)c2c(Nc4ccc(CCCC)cc4)c(C#N)c(C#N)c(Nc4ccc(CCCC)cc4)c2C3=O)cc1 measured_endpoint="extinction value" reported_measurement=0.19
compound=CCCCNc1c(C#N)c(C#N)c(NCCCC)c2c1C(=O)c1ccccc1C2=O measured_endpoint="extinction value" reported_measurement=0.23

Short answer for `CCCCc1ccc(Nc2ccc(Nc3ccc(CCCC)cc3)c3c2C(=O)c2c(Nc4ccc(CCCC)cc4)c(C#N)c(C#N)c(Nc4ccc(CCCC)cc4)c2C3=O)cc1` : extinction value was 0.342

Hey, just so you know, these numbers are from patent US20040250469A1.
